target: Hypoxia-inducible factor 1-alpha (Homo sapiens); test: […] of HIF1 in human T47D cells after 30 mins by luciferase reporter gene assay
Assay endpoint: pIC50
Recall that pIC50 is obtained by taking minus log10 of the concentration measured in molar.

Query: pIC50; subject: COc1ccc([C@@H](O)[C@@H](C)Oc2ccc([C@@H]3CC[C@H](c4ccc(O[C@H](C)[C@H](O)c5ccc(OC)c(OC)c5)c(OC)c4)C3)cc2OC)cc1OC
8.52

###

biological target: Hypoxia-inducible factor 1-alpha (Homo sapiens, UniProt Q16665); assay: […] of HIF1 in human T47D cells
Sequence (Q16665 whole entry): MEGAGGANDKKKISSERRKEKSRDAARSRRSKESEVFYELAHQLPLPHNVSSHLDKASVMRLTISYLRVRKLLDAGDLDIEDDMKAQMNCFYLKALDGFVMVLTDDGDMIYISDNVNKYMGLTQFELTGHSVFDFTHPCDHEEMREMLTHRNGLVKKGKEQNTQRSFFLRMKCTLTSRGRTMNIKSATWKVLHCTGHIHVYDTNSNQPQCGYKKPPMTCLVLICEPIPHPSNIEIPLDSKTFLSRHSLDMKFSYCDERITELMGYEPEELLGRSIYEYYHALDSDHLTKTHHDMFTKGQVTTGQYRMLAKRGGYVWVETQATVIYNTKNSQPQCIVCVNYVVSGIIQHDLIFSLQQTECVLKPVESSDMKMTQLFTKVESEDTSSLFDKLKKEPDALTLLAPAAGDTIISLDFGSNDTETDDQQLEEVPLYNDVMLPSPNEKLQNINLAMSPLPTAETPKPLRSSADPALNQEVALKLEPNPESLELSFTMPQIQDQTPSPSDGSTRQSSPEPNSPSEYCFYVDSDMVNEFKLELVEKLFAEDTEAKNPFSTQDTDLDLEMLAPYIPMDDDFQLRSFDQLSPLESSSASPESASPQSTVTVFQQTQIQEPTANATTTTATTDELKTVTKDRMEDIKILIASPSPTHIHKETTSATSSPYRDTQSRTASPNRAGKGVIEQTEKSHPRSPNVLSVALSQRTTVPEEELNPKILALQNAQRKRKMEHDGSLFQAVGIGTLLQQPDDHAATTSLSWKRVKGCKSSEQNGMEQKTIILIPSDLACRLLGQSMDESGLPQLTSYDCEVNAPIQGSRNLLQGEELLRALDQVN
Assay endpoint: IC50 (nM)
Please respond with the number in nM and leave the unit unwritten.

// map COc1ccc([C@@H](O)[C@@H](C)Oc2ccc([C@H]3O[C@H](c4ccc(OC)c(OC)c4)[C@H](C)[C@H]3C)cc2OC)cc1OC to recorded IC50 (system: Hypoxia-inducible factor 1-alpha (Homo sapiens, UniProt Q16665))
20
